meta.source: PubChem BioAssay (Tox21)

test: qHTS assay to identify small molecule antagonists of the estrogen related receptor signaling pathway with the pleiotropic PPARgamma coactivator (PGC) from Tox21 10K library - cell viability counter screen (AID 1224840); conditions: PGC/ERR reporter cells viability, CellTiter-Fluor, 17.5 h; series mostly up to 92.4 µM; also: nearly all actives have a fitted effect of over 40% in size
Results filed as inconclusive are left out. The source made the active and inactive calls. Calls follow the shape of the dose curve; as a rule, active = well fitted cell-killing curve with a large enough effect in the repeat runs (not every such curve was filed as active); inconclusive = weak or mixed curves, or effect the other way; inactive = no such curve, though single readings can be large or run the other way.
Select the correct class. Options are T = active, F = inactive and nothing else.

Input line: Identify the outcome logged in this assay for the compound shown: `CCOc1ccc(O)cc1`
Output line: F

Input line: Please indicate how the test categorized `CC(=O)[O][Al]` .
Output line: F

Input line: Each compound tested received a call. Report the one for `CC(=O)c1ccc2c(c1)N(CCCN(C)C)c1ccccc1S2` .
Output line: F

Input line: Answer briefly: the call reported for `C/C=C/C=C/CO` in this assay.
Output line: F

Input line: So what was the verdict on CC[N+](C)(CC)CCOC(=O)C(O)(c1ccccc1)C1CCCCC1 (stereo not given) in this test?
Output line: F

Input line: How was `Cc1ncc(CO)c(C=O)c1O` classified in this test?
Output line: F

Input line: Per the records of this test, what outcome belongs to `CN(C)c1ccc(C(c2ccccc2)c2ccc(N(C)C)cc2)cc1` ?
Output line: F

Input line: Per the records of this test, what outcome belongs to `O=C(OCCCCCCOC(=O)c1ccccc1)c1ccccc1` ?
Output line: F

Input line: Dear colleague, could you share the recorded outcome for `Cc1cccc(Nc2ccccc2)c1` when you have a moment?
Output line: F

Input line: Tell me the recorded outcome of this test for `CCOC(=O)C1=C[C@]2(CC)CCCN3CCc4c(n1c1ccccc41)[C@@H]32` .
Output line: F

Input line: Tell me the assay call for `Nc1cc(C(=O)O)c(O)c(S(=O)(=O)O)c1` please.
Output line: F

Input line: For `CCCCCCCC#N` , what call appears in the results of this test?
Output line: F

Input line: State the result this test recorded for `OC(C#CCN1CCCC1)(c1ccccc1)c1ccccc1` .
Output line: F

Input line: In this assay, the call recorded for O=C1OC(=O)C2C3C=CC(C3)C12 (stereo not given) was what?
Output line: F

Input line: Called result for CCOCC(O)COc1ccc(NC(=O)CC[S+](C)C)cc1 (stereo not given)
Output line: F

Input line: For `Brc1c2ccccc2cc2ccccc12` , which call appears in the assay record?
Output line: F

Input line: Fill in: this test's call for `CNCCCCOc1ccccc1Cc1ccccc1` is ___
Output line: T

Input line: Which outcome was assigned to `CCCCNc1ccc(C(=O)OCCOCCOCCOCCOCCOCCOCCOCCOCCOC)cc1` in this test?
Output line: F

Input line: What call does the record list for `C=C(C)C(=O)OCCOCC` ?
Output line: F

Input line: Kindly provide the recorded test outcome for the following compound: `CCCCCCCCCOS(=O)(=O)O`
Output line: F

Input line: Hi, sorry to bother you, what did the test record for `O=C(Cl)c1cc(C(=O)Cl)cc(C(=O)Cl)c1` ?
Output line: F

Input line: # outcome recorded in this test, key = O=C1OC(CN2CCOCC2)CN1/N=C/c1ccc([N+](=O)[O-])o1 (stereo not given)
Output line: F

Input line: Assay result, entry `CC(=O)[O][Al][O]C(C)=O` — outcome?
Output line: F

Input line: Identify the outcome logged in this assay for the compound shown: `CCC(C)(C)CC`
Output line: F

Input line: Test call, this compound: `CCCCCCCCCCCc1ccccc1`
Output line: F

Input line: Per the records of this test, what outcome belongs to `Nc1c(CC(=O)O)cccc1C(=O)c1ccc(Br)cc1` ?
Output line: F

Input line: For this compound, state the assay outcome: `c1ccc(-c2ccccn2)nc1`
Output line: F

Input line: Check the results log: what was the call for C[C@@H](c1ncncc1F)C(O)(Cn1cncn1)c1ccc(F)cc1F (stereo not given in full) ?
Output line: F

Input line: Recorded call for `CC(C)(C)Cl` ?
Output line: F

Input line: Hi, sorry to bother you, what did the test record for `O=C(NCCO[N+](=O)[O-])c1cccnc1` ?
Output line: F

Input line: Outcome logged for `CN1C[C@H]2c3ccccc3Oc3ccc(Cl)cc3[C@@H]2C1` in this assay:
Output line: F

Input line: Call for entry `CN(C)CCCN1c2ccccc2Sc2ccccc21` :
Output line: F

Input line: Dear colleague, could you share the recorded outcome for `O=C1C(O)=C(O)C(=O)C(O)=C1O` when you have a moment?
Output line: F

Input line: Write down the call the test reported for this compound. Item: `CNC(=O)CN(CCN(CCN(CC(=O)[O-])CC(=O)NC)CC(=O)[O-])CC(=O)[O-].O.[Gd+3]`
Output line: F

Input line: What classification did `c1ccc(CNCCNCc2ccccc2)cc1` end up with in this test?
Output line: F

Input line: Outcome? `Clc1ccc(Cn2c(CN3CCCC3)nc3ccccc32)cc1`
Output line: F

Input line: Check the results log: what was the call for `CCCCO` ?
Output line: F

Input line: What did the test return for `COC(=O)c1ccc(I)cc1S(=O)(=O)NC(=O)Nc1nc(C)nc(OC)n1` ?
Output line: F

Input line: Recorded call for `CN1CCN(C(c2ccccc2)c2ccccc2)CC1` ?
Output line: F

Input line: How did this test come out for `CO[C@@H]1[C@H](OC(=O)/C=C/C=C/C=C/C=C/C(=O)O)CC[C@]2(CO2)[C@H]1[C@@]1(C)O[C@@H]1CC=C(C)C` ?
Output line: F
